Target: Cysteine protease (Leishmania donovani, UniProt Q95WR6)
Sequence (Q95WR6 whole entry): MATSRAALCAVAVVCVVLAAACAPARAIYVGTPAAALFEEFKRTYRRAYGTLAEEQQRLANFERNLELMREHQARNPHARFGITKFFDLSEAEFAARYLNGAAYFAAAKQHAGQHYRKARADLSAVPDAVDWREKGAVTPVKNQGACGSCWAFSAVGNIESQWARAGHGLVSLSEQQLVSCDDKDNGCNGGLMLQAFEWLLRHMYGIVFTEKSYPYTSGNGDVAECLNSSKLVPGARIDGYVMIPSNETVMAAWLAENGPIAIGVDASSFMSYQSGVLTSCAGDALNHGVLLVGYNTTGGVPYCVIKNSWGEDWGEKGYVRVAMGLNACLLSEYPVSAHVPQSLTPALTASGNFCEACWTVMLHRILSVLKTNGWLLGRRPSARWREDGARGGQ
// boundary case: IC50 equal to 70 µM maps to 0 (no); strictly smaller maps to 1 (yes)

| molSmiles | classAssignment |
| --- | --- |
| CC(C)CC(=O)N[C@H](C(=O)N[C@H](C(=O)N[C@@H](CC(C)C)[C@@H](O)CC(=O)N[C@@H](C)C(=O)N[C@@H](CC(C)C)[C@@H](O)CC(=O)O)C(C)C)C(C)C | 1 (yes) |
| Oc1ccc(/C=N/c2ccc(/N=C/c3ccc(O)cc3O)c(Cl)c2)c(O)c1 | 1 (yes) |
| O=C(CN1C(=O)/C(=N\NC(=O)c2ccncc2)c2ccccc21)Nc1ccccc1 | 1 (yes) |
| Oc1cccc(/C=N\c2cccc3c(/N=C/c4cccc(O)c4O)cccc23)c1O | 0 (no) |
| O=C(Cn1nnc(-c2ccccc2)n1)N/N=C1\C(=O)Nc2ccccc21 | 0 (no) |
